Kindly supply the reported inhibition values for the records listed here.
# Study target: Solute carrier family 2, facilitated glucose transporter member 1 (Homo sapiens) (UniProt P11166)
# Sequence (P11166 whole entry): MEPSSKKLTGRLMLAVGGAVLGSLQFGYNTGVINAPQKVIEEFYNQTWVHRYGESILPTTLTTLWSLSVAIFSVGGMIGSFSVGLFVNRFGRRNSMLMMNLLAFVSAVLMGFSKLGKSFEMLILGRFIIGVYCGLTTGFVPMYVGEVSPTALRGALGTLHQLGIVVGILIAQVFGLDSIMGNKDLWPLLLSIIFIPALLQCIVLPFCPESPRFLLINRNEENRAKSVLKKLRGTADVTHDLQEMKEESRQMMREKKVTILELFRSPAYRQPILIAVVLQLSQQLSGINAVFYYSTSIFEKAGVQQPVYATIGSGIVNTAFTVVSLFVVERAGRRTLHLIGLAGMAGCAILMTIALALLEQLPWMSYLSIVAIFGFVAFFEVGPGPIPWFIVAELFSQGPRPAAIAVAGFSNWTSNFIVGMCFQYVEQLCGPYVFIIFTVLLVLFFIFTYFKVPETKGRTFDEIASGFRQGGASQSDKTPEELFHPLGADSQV
# Test name: ST_JUDE_LEISH: Cytotoxicity at 2uM final concentration against transgenic Leishmania Mexicana promastigotes LmGLUT1 that are glucose transport deficient and complemented with the human glucose transporter GLUT1. Activity is measured by DNA content using SYBR green in vitro
# Type: functional
Numbers only, in %.

Known results for molecules:
{"Molecule": "CN(CCc1ccccc1)c1ncc(-c2cccc(CNCCC3CCCN3C)c2)cn1 (centres undefined)", "inhibition (%)": 111}
{"Molecule": "Cc1ccc(O)cc1Nc1ccnc2cc(-c3csc(CNCCN4CCOCC4)n3)ccc12", "inhibition (%)": 1.41}
{"Molecule": "COc1cc(CNCCCCCCNCc2cc(OC)cc3ccccc23)c2ccccc2c1", "inhibition (%)": 10.8}

Hi, could you look up inhibition for each item in my list?
1. CCc1cc(=O)[nH]c(-n2nc(C)cc2NC(=O)CC(c2ccccc2)c2ccccc2)n1
2. COc1nc2c(CCN3CC[C@H](NCc4ccc5c(c4)NC(=O)CO5)[C@H](O)C3)c(Cl)cnc2cc1F
3. Oc1ccc2nc(N3CCNCC3)nc(NCCCc3ccccc3)c2c1

1. 11.2
2. 6.64
3. -0.71

Answer for every listed entry: what is its inhibition? The entries follow.
1. COc1ccccc1C(=O)Nc1ccc(Nc2nc(C)cc(N(C)C)n2)cc1
2. C/C=C/COc1ccc2ccccc2c1CNCCCCCCCCNCc1c(OC/C=C/C)ccc2ccccc12
3. N#Cc1ccc(N(CCOC(=O)c2ccc(Br)s2)Cc2ccccc2C(F)(F)F)cc1C(F)(F)F
4. [O-][s+]1c(Cl)c(-c2ccc(Cl)cc2)c2ccc(Cl)cc21 (centres undefined)
5. C=CCC1OC(=O)c2cc(OC)cc(OC)c21 (centres undefined)
6. Cc1cnc2cc3c(cc2c1N1CCN(C)CC1)NCC3
7. O=C(/C=C/c1ccc(Cl)c(Cl)c1)N1CCC(CCN2CCC(c3c[nH]c4cc5c(cc34)OCO5)CC2)CC1

[7.13, 16.7, 1.7, 6.36, 89.1, -0.55, 0.05]

Please state inhibition for every molecule in the list that follows.
1. COc1ccc(N2CCN(CCCCNC(=O)c3ccc(NC(=O)c4cc(C(F)(F)F)cc(C(F)(F)F)c4)cc3)CC2)cc1OC
2. O=C(Nc1cccc(C(F)(F)F)c1)Nc1ccc(Cl)c(C(F)(F)F)c1

1: 1.59; 2: -1.34

Fill in inhibition for each of the 3 molecules listed.
1. CCCCCCN1CCC(NCc2ccc(C(F)(F)F)cc2)CC1
2. NCC1CCCN1Cc1ccc(-c2cccc(-c3nc4cc(F)ccc4[nH]3)c2)cc1 (centres undefined)
3. Cc1nc(-c2ccncc2)sc1C(=O)Nc1ccc(Cl)cc1C(=O)Nc1ccc(Cl)cc1

1: 2.05; 2: 3.25; 3: 3.13

Using the record for `O=C(Nc1ccc(S(=O)(=O)NCCCN2CCOCC2)cc1)c1cc(-c2ccccc2)[nH]n1` , report its inhibition.
1.2

* * *

# Study target: Hexose transporter 1 (Plasmodium falciparum) (UniProt O97467)
# Test name: ST_JUDE_LEISH: Cytotoxicity at 2uM final concentration against transgenic Leishmania Mexicana promastigotes LmPfHT that are glucose transport deficient and complemented with the Plasmodium falciparum hexose transporter. Activity is measured by DNA content using SYBR green in vitro
# Assay type: functional
Would you kindly list inhibition for each of these molecules?
Numbers only, in %.

{"Molecule": "CCCNS(=O)(=O)c1ccc(NC(=O)C(C)Oc2ccc([N+](=O)[O-])cc2)cc1 (centres undefined)", "inhibition, %": 0.29}
{"Molecule": "O=C(CNC(=O)c1ccc(O)cc1)Nc1ccc(-c2cccc(-c3nc4cc(C(F)(F)F)ccc4[nH]3)c2)cc1", "inhibition, %": 8.61}
{"Molecule": "CCCCOC(=O)C1=C(C)NC2=C(C(=O)CC(c3ccc(OC)c(OC)c3)C2)C1c1ccc(O)cc1 (centres undefined)", "inhibition, %": 1.48}

What does the data say about its inhibition? Entry: `CCOC(=O)NCC(=O)Nc1cccc(-c2cccc(-c3nc4cccc(C)c4[nH]3)c2)c1`
1.64

* * *

# Study target: Glucose transporter (Leishmania mexicana) (UniProt O61059)
# Test name: ST_JUDE_LEISH: Cytotoxicity at 2uM final concentration against transgenic Leishmania Mexicana promastigotes LmGT2 that are glucose transport deficient and complemented with the L. Mexicana glucose transporter 2. Activity is measured by DNA content using SYBR green in vitro
# Format: functional
What inhibition was measured for each of the following?
A bare number is not enough; add the unit after it.

Field: example entries. Status: answers known.
{"Molecule": "CCCNCc1ccc(-c2ccc(CN(CC3CCCO3)C(=O)C3CC(=O)c4ccccc43)cc2)nc1 (centres undefined)", "Result": "3.19%"}
{"Molecule": "CN1CCN(CCCN(Cc2csc(-c3ccc(CNCc4ccccc4)cc3)n2)S(=O)(=O)c2ccc(F)cc2)CC1", "Result": "10.1%"}
{"Molecule": "Cc1cccc2nc(-c3cccc(-c4cccc(NC(=O)C(C)CN(C)C)c4)c3)[nH]c12 (centres undefined)", "Result": "2.3%"}

I'd like to know its inhibition. The molecule in question is `Cc1cc(C2CCN(CCCCNC(=O)c3ccc(-c4ccc(C(F)(F)F)cc4)cc3)CC2)c(C)cc1OCCO`
2.63%

* * *

So I've got a bunch of molecules here, and I need their inhibition values.
# Study target: Glucose transporter (Leishmania mexicana)
# Test name: ST_JUDE_LEISH: Cytotoxicity at 2uM final concentration against transgenic Leishmania Mexicana promastigotes LmGT2 that are glucose transport deficient and complemented with the L. Mexicana glucose transporter 2. Activity is measured by DNA content using SYBR green in vitro
# Type: functional
One number for each entry, in %.

Here's what some known entries look like.
{"Molecule": "CN1CCN(CCCN(Cc2ccc(-c3cccc(CNCc4ccc5c(c4)OCO5)c3)cc2)C(=O)NC2CCCCC2)CC1", "Readout number": 0.88}
{"Molecule": "O=C(NCc1cccc(C(F)(F)F)c1)c1ccc(-c2nc3cc(F)c(F)cc3[nH]2)cc1", "Readout number": 4.61}
{"Molecule": "COc1cccc2c(N/N=C/c3ccccc3[N+](=O)[O-])ccnc12", "Readout number": 3.87}

// batch mode: one inhibition value per listed entry
1. Cc1cnc(C(=O)Nc2ccc3c(c2)CCCN(Cc2c[nH]c4cnccc24)C3)cn1
2. COCCCNC(=O)C1CCN(C(c2ccc(Cl)cc2)c2ccc(Cl)cc2)CC1
3. N=C(N)c1ccc(-c2cc3ccc(C(=N)N)cc3[nH]2)cc1
4. CN1C(C)(C)CC(NC(=O)c2ccc(-c3nc4cc(Cl)c(Cl)cc4[nH]3)cc2)CC1(C)C
5. N#Cc1ccc2c(c1)CN(C1CCC(NC(=O)C3=Cc4cc(Cl)ccc4OC3)CC1)CCC2 (stereo not given)
6. Cc1cc(N[C@@H](Cc2ccccc2)C(=O)NCCOc2ccccc2)nc(NCc2ccccc2C)n1

9.32
4.61
52.2
2.38
5.6
4.21

Quick one: inhibition for `O=C(NC1CCN(CC2(c3ccccc3F)CCCC2)CC1)c1cc[nH]n1` ?
1.89

* * *

# Study target: Hexose transporter 1 (Plasmodium falciparum) (UniProt O97467)
# Test name: ST_JUDE_LEISH: Cytotoxicity at 2uM final concentration against transgenic Leishmania Mexicana promastigotes LmPfHT that are glucose transport deficient and complemented with the Plasmodium falciparum hexose transporter. Activity is measured by DNA content using SYBR green in vitro
# Format: functional
Readout: inhibition (%)
Answers are plain numbers, in %.

Some solved cases for reference:
{"Compound": "COc1ccc(Cl)cc1N1CCN(CCCNC(=O)c2ccc(-c3nc4c(C)cccc4[nH]3)s2)CC1", "Uom": "%", "inhibition": -0.51}
{"Compound": "CC(C)N1CCC(NC(=O)N2CCCN(c3ncnc4cc(-c5ccc(Cl)cc5)sc34)CC2)CC1", "Uom": "%", "inhibition": 0.6}
{"Compound": "O=C1C[C@@H]([S+]([O-])Cc2nccs2)N1CCOCCCCCCc1ccc(Cl)cc1 (stereo not given in full)", "Uom": "%", "inhibition": 8.24}
{"Compound": "CCOCc1cnc(C)nc1NCC(=O)c1c(C)[nH]c2cc(C)ccc12", "Uom": "%", "inhibition": -0.79}

Which inhibition is reported for this compound? `COc1cc(OC)c2c(C)cc(NCCCn3ccnc3)nc2c1`
3.68

* * *

# Study target: Solute carrier family 2, facilitated glucose transporter member 1 (Homo sapiens) (UniProt P11166)
# Test name: ST_JUDE_LEISH: Cytotoxicity at 2uM final concentration against transgenic Leishmania Mexicana promastigotes LmGLUT1 that are glucose transport deficient and complemented with the human glucose transporter GLUT1. Activity is measured by DNA content using SYBR green in vitro
# Type: functional
Readout: inhibition (%)
One number for each entry, in %.

{"Molecule": "O=C(C1CCCCC1)N1CCOC(CCN2CCC(c3ccccc3)CC2)(c2ccc(Cl)c(Cl)c2)C1 (stereo not given)", "Readout": "inhibition", "Readout number": 15.2}
{"Molecule": "Cn1cc(C2CCN(CCCCNC(=O)c3sc(-c4ccc(C(F)(F)F)cc4)nc3CO)CC2)c2ccccc21", "Readout": "inhibition", "Readout number": -3.34}
{"Molecule": "COc1ccc(CCNC(C)Cc2ccc(C(=O)Nc3ccc(CC(C)NCCc4cccc(Cl)c4)cc3)cc2)cc1 (stereo not given)", "Readout": "inhibition", "Readout number": 3.92}
{"Molecule": "Cc1ccc(NC(=O)N2CCCN(CCCCCNC(=O)/C=C/c3ccc(Cl)c(Cl)c3)CC2)cc1C", "Readout": "inhibition", "Readout number": -0.69}

Next molecule, please.
Return reported inhibition; argument: `FC(F)(F)COc1ccc(CCNCCCCNCCc2ccc(OCC(F)(F)F)c3ccccc23)c2ccccc12`
-0.09
